Collected literature values of IC50 measured for PIK3CD (Human).

Worked set:
INSERT INTO assay_data (compound, result) VALUES
  ('Cc1nn(C)c(C)c1-c1nc(N2CCOCC2)nc2c(CN3CCN(C(=O)C(C)C)CC3)csc12', '0.15 µM'),
  ('CCC(Nc1ncnc2[nH]cnc12)c1cc2cccc(C)c2c(=O)n1C1CCC1 (stereo not shown)', '< 0.1 µM'),
  ('COc1ncc(-c2nc(N3CCOCC3)nc3c(CN4CCC(OC)CC4)c(C)sc23)cc1NS(=O)(=O)C1CC1', '0.024 µM'),
  ('COc1ncc(-c2nc(N3CCOCC3)nc3c(CN4CCC(N5CC(F)(F)C5)CC4)c(C)sc23)cc1NS(C)(=O)=O', '0.0029 µM'),
  ('N#Cc1cc2ccc(Nc3ccc(N4CCNCC4)cc3)nc2n(C2CCCC2)c1=O', '> 50 µM');

Noted for "Cc1nc(Cl)cn1-c1nc(N2CCOCC2)nc2c(CN3CCN(C(=O)C(C)C)CC3)csc12" : its IC50 reads 0.027 µM

Per the record, "CN1CCN(C(=O)c2cnc3ccc(-c4ccc5nc(N)oc5c4)cn23)CC1" has IC50 of > 10 µM

So, "C[C@H](Nc1ncnc2[nH]cnc12)c1cc2c(F)cccc2c(CCN2CCOCC2)n1" ? Its IC50 was < 0.1 µM
